# System: interleukin-12 (IL-12) from brain homogenate
# EXPERIMENT NOTES: Hangover study, IL-12 from brain homogenate, alcohol 1 day
# Assay type: in vivo, Wistar albino rats
# Set-up: concentration or dose not given beside the values
# EXPERIMENTAL SETUP: 1 Day alcohol
Where a SMILES comes first, the peptide text is derived from it.
Measured Brain IL12 Pro (Protection) of individual entries
Give the number; % is assumed, so skip it.

CC1(C(=O)O)CCC2(C)CCC3(C)C(=CC(=O)C4C5(C)CCC(OC6OC(C(=O)O)C(O)C(O)C6OC6OC(C(=O)O)C(O)C(O)C6O)C(C)(C)C5CCC43C)C2C1 (stereo not drawn) [0.1 GA, 18β-GA] :: 3.16
CC1(C(=O)O)CCC2(C)CCC3(C)C(=CC(=O)C4C5(C)CCC(OC6OC(C(=O)O)C(O)C(O)C6OC6OC(C(=O)O)C(O)C(O)C6O)C(C)(C)C5CCC43C)C2C1 (stereo not drawn) [0.04 GA, 18β-GA] :: 1.09
OC[C@@H](O)[C@@H](O)[C@H](O)[C@H](O)CO [2.5 Man, D-Mannitol] :: 23.16

Identify the measured Brain IL12 Pro (Protection) of C[C@H](N)C(=O)N[C@@H](CCC(N)=O)C(=O)O [1 DP, L-Ala-L-Gln] (H-Ala-Gln-OH) for interleukin-12 (IL-12) from brain homogenate.
10.53

====

# Test system: Interferon gamma (IFN-γ)
# EXPERIMENT NOTES: Hangover study, serum IFN-gamma, alcohol 1 day
# Assay type: in vivo, Wistar albino rats
# Design: concentration or dose not given beside the values
# EXPERIMENTAL SETUP: 1 Day alcohol
Where a SMILES comes first, the peptide text is derived from it.
QUANTITY: IFN-Gamma Pro (Protection) (%)
Respond with the bare value in %.

Sample records with IFN-Gamma Pro (Protection):
C[C@H](N)C(=O)N[C@@H](CCC(N)=O)C(=O)O [1.5 DP, L-Ala-L-Gln] (H-Ala-Gln-OH) :: 20.58
CC1(C(=O)O)CCC2(C)CCC3(C)C(=CC(=O)C4C5(C)CCC(OC6OC(C(=O)O)C(O)C(O)C6OC6OC(C(=O)O)C(O)C(O)C6O)C(C)(C)C5CCC43C)C2C1 (stereo not drawn) [0.3 GA, 18β-GA] :: 7.85
C[C@H](N)C(=O)N[C@@H](CCC(N)=O)C(=O)O [0.5 DP, L-Ala-L-Gln] (H-Ala-Gln-OH) :: 2.58
CC1(C(=O)O)CCC2(C)CCC3(C)C(=CC(=O)C4C5(C)CCC(OC6OC(C(=O)O)C(O)C(O)C6OC6OC(C(=O)O)C(O)C(O)C6O)C(C)(C)C5CCC43C)C2C1 (stereo not drawn) [0.1 GA, 18β-GA] :: 2.58
C/C=C/C=C/C(=O)[O-].[K+] [0.1 KS, Potassium Sorbate] :: 0.11

What IFN-Gamma Pro (Protection) value was documented for this compound, C[C@H](N)C(=O)N[C@@H](CCC(N)=O)C(=O)O [2.0 DP, L-Ala-L-Gln] (H-Ala-Gln-OH) ?
25.96

Entry under review: OC[C@@H](O)[C@@H](O)[C@H](O)[C@H](O)CO [2.5 Man, D-Mannitol] . Reported IFN-Gamma Pro (Protection)?
18.22
